Biological target: Cholinesterases; ACHE & BCHE (Homo sapiens) (UniProt P06276+P22303)
Sequence (P06276 whole entry, looked up): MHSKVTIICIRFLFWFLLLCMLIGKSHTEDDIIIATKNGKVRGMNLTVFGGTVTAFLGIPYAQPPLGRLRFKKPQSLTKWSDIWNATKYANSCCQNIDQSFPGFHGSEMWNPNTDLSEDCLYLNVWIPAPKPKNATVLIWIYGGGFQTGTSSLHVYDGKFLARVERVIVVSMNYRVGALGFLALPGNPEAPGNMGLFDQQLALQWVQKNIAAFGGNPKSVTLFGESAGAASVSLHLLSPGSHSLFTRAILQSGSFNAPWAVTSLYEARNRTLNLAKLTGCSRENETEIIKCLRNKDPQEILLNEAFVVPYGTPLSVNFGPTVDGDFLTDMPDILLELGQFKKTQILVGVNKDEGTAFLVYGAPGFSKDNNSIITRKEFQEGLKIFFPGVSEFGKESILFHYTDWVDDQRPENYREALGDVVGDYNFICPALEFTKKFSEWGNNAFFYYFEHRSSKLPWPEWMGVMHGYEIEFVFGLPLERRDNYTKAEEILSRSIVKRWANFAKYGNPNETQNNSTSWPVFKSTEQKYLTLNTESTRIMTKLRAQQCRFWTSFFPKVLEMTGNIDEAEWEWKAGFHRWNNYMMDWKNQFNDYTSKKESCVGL
Sequence (P22303 whole entry, looked up): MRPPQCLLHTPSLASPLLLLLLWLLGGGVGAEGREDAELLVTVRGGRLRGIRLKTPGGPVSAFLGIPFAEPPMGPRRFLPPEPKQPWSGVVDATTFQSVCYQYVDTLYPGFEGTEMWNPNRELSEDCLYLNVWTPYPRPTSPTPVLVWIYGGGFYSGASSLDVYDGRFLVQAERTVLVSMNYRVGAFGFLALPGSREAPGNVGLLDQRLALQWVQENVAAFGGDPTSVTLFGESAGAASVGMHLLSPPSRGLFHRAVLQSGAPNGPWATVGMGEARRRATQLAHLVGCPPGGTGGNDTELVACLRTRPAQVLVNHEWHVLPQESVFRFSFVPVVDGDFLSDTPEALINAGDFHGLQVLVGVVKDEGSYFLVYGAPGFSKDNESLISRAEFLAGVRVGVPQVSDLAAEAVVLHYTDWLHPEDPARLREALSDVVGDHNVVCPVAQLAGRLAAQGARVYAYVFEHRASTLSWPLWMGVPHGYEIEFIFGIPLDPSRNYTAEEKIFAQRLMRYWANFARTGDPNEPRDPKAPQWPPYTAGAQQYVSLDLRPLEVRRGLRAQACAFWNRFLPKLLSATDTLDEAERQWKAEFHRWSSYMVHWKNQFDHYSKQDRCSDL
Experiment: Ratio between IC50 of human BChE and human AChE
Format: protein assay
As shown below, each of these compounds has a reported Ratio value.
Please reply with the number alone, leaving off any unit.

Below, 3 compounds whose answers are already recorded.
[
  {
    "Compound": "CC1=CC2Cc3nc4cc(F)cc(F)c4c(N)c3C(C1)C2 (centres undefined)",
    "Ratio": 438
  },
  {
    "Compound": "CC1=C[C@@H]2Cc3nc4cc(F)ccc4c(N)c3[C@H](C1)C2",
    "Ratio": 43
  },
  {
    "Compound": "CCC1=CC2Cc3nc4cc(C)cc(C)c4c(N)c3C(C1)C2 (centres undefined)",
    "Ratio": 6.57
  }
]

Query compound follows.
Q. Hello, I am looking for reported Ratio with Cholinesterases; ACHE & BCHE (Homo sapiens) (UniProt P06276+P22303) for CC1=CC2Cc3nc4cccc(F)c4c(N)c3C(C1)C2 (centres undefined) . Could you help?
A. 15.3

====

Biological target: UniProt:P22303
IC50 strictly under 2 nM means t; at 2 nM or over means f.

[
  {
    "Molecule": "CCC1=CC2Cc3nc4cc(C)cc(C)c4c(N)c3C(C1)C2 (stereo not given)",
    "Test System": "UniProt:P22303",
    "Assigned Label": "f"
  },
  {
    "Molecule": "CCC1=CC2Cc3nc4cc(Cl)ccc4c(N)c3[C@@H](C1)C2 (mixture of isomers; (-)) [HUPRINE X]",
    "Test System": "UniProt:P22303",
    "Assigned Label": "t"
  },
  {
    "Molecule": "CC1=C[C@@H]2Cc3nc4cc(F)ccc4c(N)c3[C@H](C1)C2",
    "Test System": "UniProt:P22303",
    "Assigned Label": "f"
  },
  {
    "Molecule": "CC1=CC2Cc3nc4cc(F)cc(F)c4c(N)c3C(C1)C2 (stereo not given)",
    "Test System": "UniProt:P22303",
    "Assigned Label": "f"
  }
]

Now look at this one.
Q. Field: below-cutoff. Rule: recorded IC50 strictly less than 2 nM. Subject: CCC1=CC2Cc3nc4cc(Cl)ccc4c(N)c3[C@@H](C1)C2 (mixture of isomers; (+)) [HUPRINE X]
A. f

====

Biological target: Acetylcholinesterase (Bos taurus, UniProt P23795)
Reported Endpoint: pIC50
Conceptually, pIC50 converts a concentration in mol/L into minus its log10.

Q. Name the recorded pIC50 for CCC1=CC2Cc3nc4cc(Cl)ccc4c(N)c3[C@@H](C1)C2 (mixture of isomers; (+)) [HUPRINE X] .
A. 6.46

Q. Would you kindly repeat that for CC1=CC2Cc3nc4cc(Cl)ccc4c(N)c3C(C1)C2 (racemic; (-)) [HUPRINE Y] ?
A. 10.61

====

Target: Acetylcholinesterase (Bos taurus)
Sequence (P23795 whole entry): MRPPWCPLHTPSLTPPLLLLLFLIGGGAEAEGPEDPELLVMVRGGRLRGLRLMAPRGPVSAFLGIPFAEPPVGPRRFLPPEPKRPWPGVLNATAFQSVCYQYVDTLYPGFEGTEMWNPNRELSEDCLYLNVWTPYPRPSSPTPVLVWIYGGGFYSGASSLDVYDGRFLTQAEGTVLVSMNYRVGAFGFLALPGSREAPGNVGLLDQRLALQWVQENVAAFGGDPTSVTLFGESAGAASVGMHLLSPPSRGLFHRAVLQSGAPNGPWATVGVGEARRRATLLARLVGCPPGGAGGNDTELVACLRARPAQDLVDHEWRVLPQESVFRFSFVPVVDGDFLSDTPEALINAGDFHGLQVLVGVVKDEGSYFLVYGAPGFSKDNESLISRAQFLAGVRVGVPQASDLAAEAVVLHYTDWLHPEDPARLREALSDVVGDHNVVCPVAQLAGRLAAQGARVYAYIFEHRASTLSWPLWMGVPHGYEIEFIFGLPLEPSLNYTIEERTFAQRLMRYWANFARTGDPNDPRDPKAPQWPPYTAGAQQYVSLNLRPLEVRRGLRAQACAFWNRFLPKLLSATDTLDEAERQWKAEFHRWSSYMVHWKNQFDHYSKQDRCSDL
Reported Endpoint: IC50 (nM)
Write it as a number; the unit nM goes unstated.

Below, 4 molecules whose answers are already recorded.
[
  {
    "Molecule": "CC1=CC2Cc3nc4cc(Cl)ccc4c(N)c3C(C1)C2 (racemic; (+)) [HUPRINE Y]",
    "Reported Endpoint": "IC50",
    "Experimental Value": 65
  },
  {
    "Molecule": "CCC1=CC2Cc3nc4cc(F)cc(F)c4c(N)c3C(C1)C2 (stereo not given)",
    "Reported Endpoint": "IC50",
    "Experimental Value": 2.62
  },
  {
    "Molecule": "CCC1=CC2Cc3nc4cc(Cl)ccc4c(N)c3[C@@H](C1)C2 (mixture of isomers; (+)) [HUPRINE X]",
    "Reported Endpoint": "IC50",
    "Experimental Value": 402
  },
  {
    "Molecule": "CC1=CC2Cc3nc4cc(Cl)ccc4c(N)c3C(C1)C2 (racemic; (-)) [HUPRINE Y]",
    "Reported Endpoint": "IC50",
    "Experimental Value": 1.15
  }
]

Query molecule follows.
Q. Name the recorded IC50 for CC1=CC2Cc3nc4cc(Cl)ccc4c(N)c3C(C1)C2 (stereo in doubt) [HUPRINE Y] .
A. 4.23

====

Observed pIC50, system Cholinesterase (Homo sapiens, UniProt P06276).
Conceptually, pIC50 converts a concentration in mol/L into minus its log10.

Below, 3 compounds whose answers are already recorded.
[
  {
    "Compound": "CCC1=CC2Cc3nc4cc(Cl)ccc4c(N)c3[C@@H](C1)C2 (mixture of isomers; (+)) [HUPRINE X]",
    "Experimental Value": 7.23
  },
  {
    "Compound": "CCC1=CC2Cc3nc4cc(Cl)cc(Cl)c4c(N)c3C(C1)C2 (centres undefined)",
    "Experimental Value": 5.92
  },
  {
    "Compound": "CC1=CC2Cc3nc4cc(Cl)ccc4c(N)c3C(C1)C2 (racemic; (-)) [HUPRINE Y]",
    "Experimental Value": 6.61
  }
]

Q. Name the recorded pIC50 for CC1=CC2Cc3nc4cc(Cl)ccc4c(N)c3C(C1)C2 (stereo in doubt) [HUPRINE Y] .
A. 6.63

====

Target: UniProtKB P06276
Reported Endpoint: pIC50
Conceptually, pIC50 converts a concentration in mol/L into minus its log10.

[
  {
    "Molecule": "CCC1=CC2Cc3nc4cc(Cl)ccc4c(N)c3[C@@H](C1)C2 (mixture of isomers; (-)) [HUPRINE X]",
    "Experimental Value": 6.80
  }
]

Q. Name the recorded pIC50 for CC1=CC2Cc3nc4cc(Cl)ccc4c(N)c3C(C1)C2 (racemic; (+)) [HUPRINE Y] .
A. 6.82

Q. Would you kindly repeat that for CCC1=CC2Cc3nc4cc(Cl)ccc4c(N)c3[C@@H](C1)C2 (stereo in doubt) [HUPRINE X] ?
A. 7.80

Q. Would you kindly repeat that for CCC1=CC2Cc3nc4cc(F)cc(F)c4c(N)c3C(C1)C2 (stereo not drawn) ?
A. 6.71

Q. Would you kindly repeat that for CC1=CC2Cc3nc4cc(F)cc(F)c4c(N)c3C(C1)C2 (stereo not drawn) ?
A. 6.02

Q. Would you kindly repeat that for CCC1=CC2Cc3nc4cc(C)cc(C)c4c(N)c3C(C1)C2 (stereo not drawn) ?
A. 7.49

Q. Would you kindly repeat that for CCC1=CC2Cc3nc4cccc(Cl)c4c(N)c3C(C1)C2 (stereo not drawn) ?
A. 6.48

====

As shown below, each of these compounds has a reported pIC50 value.
Biological target: Acetylcholinesterase (Homo sapiens)
Sequence (P22303 whole entry): as the sequence (P22303 whole entry, looked up) above
Conceptually, pIC50 converts a concentration in mol/L into minus its log10.

Below, 4 compounds whose answers are already recorded.
[
  {
    "Compound": "CC1=CC2Cc3nc4cccc(F)c4c(N)c3C(C1)C2 (stereo not given)",
    "pIC50": 7.45
  },
  {
    "Compound": "CCC1=CC2Cc3nc4cc(Cl)ccc4c(N)c3[C@@H](C1)C2 (stereo in doubt) [HUPRINE X]",
    "pIC50": 9.12
  },
  {
    "Compound": "CCC1=CC2Cc3nc4cc(F)cc(F)c4c(N)c3C(C1)C2 (stereo not given)",
    "pIC50": 8.75
  },
  {
    "Compound": "CCC1=CC2Cc3nc4cccc(Cl)c4c(N)c3C(C1)C2 (stereo not given)",
    "pIC50": 7.93
  }
]

Query compound follows.
Q. Name the recorded pIC50 for CCC1=CC2Cc3nc4cc(Cl)cc(Cl)c4c(N)c3C(C1)C2 (stereo not given) .
A. 8.86
